System: Human rhinovirus sp.
assay.details: In vitro concentration required to achieve 50% protection of HeLa cells from HRV-14 induced cytopathic effect
Assay type: functional, organism-based
quantity.name: EC50 (µM)

Cc1cc(C(=O)CCCCOc2ccc(C3=NCCO3)cc2)c(C)n1C 11.3
Cc1cc(CCCCCCCOc2ccc(C3=NCCO3)cc2)on1 1.76
CCOC(=O)c1ccc(OCCCCC(=O)c2ccc(C)s2)cc1 0.29
CCOC(=O)c1ccc(OCCCCCc2ccc(Cl)s2)cc1 9.15

I = CCOC(=O)c1ccc(OCCCCC(=O)c2cc(C)n(C)c2C)cc1
II = O=C(CCCCOc1ccc(C2=NCCO2)cc1)c1ccc(Cl)s1
stdin: # returns the entry with the larger EC50; inputs I and II Pick one; state its label.
stdout: I
